Value source: patent US12662451B2

Molecular target: recombinant full-length WRN protein (1-1432) (Homo sapiens, UniProt Q14191)
Construct: recombinant full-length WRN protein (1-1432)
Sequence (Q14191 whole entry): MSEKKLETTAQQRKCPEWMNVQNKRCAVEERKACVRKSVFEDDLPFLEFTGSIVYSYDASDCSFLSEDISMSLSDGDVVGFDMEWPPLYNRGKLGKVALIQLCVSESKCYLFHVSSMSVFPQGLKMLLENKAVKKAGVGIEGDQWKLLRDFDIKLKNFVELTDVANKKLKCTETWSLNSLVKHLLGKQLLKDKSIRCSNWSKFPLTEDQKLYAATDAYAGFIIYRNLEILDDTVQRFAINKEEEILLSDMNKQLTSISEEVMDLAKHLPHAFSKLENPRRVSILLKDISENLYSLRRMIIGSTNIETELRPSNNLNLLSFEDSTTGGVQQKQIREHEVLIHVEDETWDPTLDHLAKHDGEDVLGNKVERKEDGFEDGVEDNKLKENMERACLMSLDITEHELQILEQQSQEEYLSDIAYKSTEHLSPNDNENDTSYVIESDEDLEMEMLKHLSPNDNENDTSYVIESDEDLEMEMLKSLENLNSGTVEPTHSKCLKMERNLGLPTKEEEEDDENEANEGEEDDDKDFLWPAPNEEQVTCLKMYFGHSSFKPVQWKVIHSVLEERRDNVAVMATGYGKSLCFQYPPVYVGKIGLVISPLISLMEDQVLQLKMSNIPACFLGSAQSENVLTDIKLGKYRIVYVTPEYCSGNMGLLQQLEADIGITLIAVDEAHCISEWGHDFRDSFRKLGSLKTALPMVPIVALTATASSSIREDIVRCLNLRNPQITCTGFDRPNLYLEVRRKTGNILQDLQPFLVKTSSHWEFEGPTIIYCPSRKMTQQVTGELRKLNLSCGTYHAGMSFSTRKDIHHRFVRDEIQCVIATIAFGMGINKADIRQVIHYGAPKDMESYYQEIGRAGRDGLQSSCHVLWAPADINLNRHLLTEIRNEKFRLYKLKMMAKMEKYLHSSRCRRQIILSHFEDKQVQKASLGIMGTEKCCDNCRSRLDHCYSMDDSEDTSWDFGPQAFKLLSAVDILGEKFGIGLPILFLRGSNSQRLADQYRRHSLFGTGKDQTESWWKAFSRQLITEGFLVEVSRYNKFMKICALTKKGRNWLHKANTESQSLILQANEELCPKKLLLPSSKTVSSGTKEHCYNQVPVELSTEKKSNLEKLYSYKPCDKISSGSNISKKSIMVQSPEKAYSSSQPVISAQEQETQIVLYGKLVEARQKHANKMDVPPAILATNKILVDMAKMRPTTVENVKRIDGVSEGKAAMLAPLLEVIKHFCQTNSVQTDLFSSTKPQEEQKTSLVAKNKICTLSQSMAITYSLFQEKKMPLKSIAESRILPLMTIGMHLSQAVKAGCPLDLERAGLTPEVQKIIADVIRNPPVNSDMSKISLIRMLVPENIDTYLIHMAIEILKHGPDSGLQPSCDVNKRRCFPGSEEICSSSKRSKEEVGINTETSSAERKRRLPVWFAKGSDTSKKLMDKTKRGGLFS
Test: WRN unwinding activity, fluorogenic 384-well assay (Example A)
Assay type: biochemical
Settings: WRN unwinding activity, 4 hr; Table 2; read-out: 4 hr UNW pIC50 (converted)
Structures can show the parent of a compound that is named as a salt.
QUANTITY MEASURED: IC50 (µM)

molecule="Cc1nc2cc(S(=O)(=O)N(C)c3ccc([C@@H]4C[C@H](OC[C@@H]5CCOC5)C[C@H](C(=O)Nc5ccc(C(F)(F)F)cc5F)[C@H]4C(=O)O)cc3)ccc2n1C (stereo in doubt) [Example 319]" quantity_measured=IC50 value=0.316
molecule="O=C(O)[C@@H]1[C@@H](c2ccc(C3COC3)cc2)CCC[C@H]1C(=O)Nc1ccc(C(F)(F)F)cc1F [Example 63]" quantity_measured=IC50 value=1.58
molecule="O=C(O)[C@@H]1[C@@H](c2ccc(CCN3CCNC3=O)cc2)CCC[C@H]1C(=O)Nc1ccc(C(F)(F)F)cc1F [Example 60]" quantity_measured=IC50 value=2.51
molecule="Cc1nc2cc(S(=O)(=O)N(C)c3ccc([C@H]4CCC[C@@H](C(=O)NC56CC(C(F)F)(C5)C6)[C@@H]4C(=O)O)cc3)ccc2n1C [Example 186, formic acid salt]" quantity_measured=IC50 value=3.16
molecule="Cc1nc2cc(S(=O)(=O)N(C)c3ccc([C@H]4C[C@H](N5CC[C@H](F)C5)C[C@@H](C(=O)Nc5ccc(C(F)(F)F)cc5F)[C@@H]4C(=O)O)cc3)ccc2n1C (stereo in doubt) [Example 380]" quantity_measured=IC50 value=0.0398
molecule="CN(c1ccc([C@H]2CCC[C@@H](C(=O)Nc3ccc(C(F)(F)F)cc3F)[C@@H]2C(=O)O)cc1)S(C)(=O)=O [Example 285]" quantity_measured=IC50 value=0.0316
